# Plant response rating (visual injury vs untreated controls) per record follows
- Test system: giant foxtail (Setaria viridis)
- ASSAY OVERVIEW: Test A preemergence, soil drench
- Format: in vivo
- APPLIED CONDITIONS: Rate 500 g/ha, approx. eleven days
READOUT: Plant response rating (visual injury vs untreated controls)

MOLECULE: O=C1C(n2ccc(C3CC3)n2)SCN1c1cccc(C(F)(F)F)c1 (centres unmarked)
TARGET OF ASSAY: giant foxtail (Setaria viridis)
MEASURED NUMBER: 100
//
MOLECULE: CC(C)(C)c1ccn(C2CCN(c3cccc(I)c3)C2=O)n1 (centres unmarked)
TARGET OF ASSAY: giant foxtail (Setaria viridis)
MEASURED NUMBER: 70
//
MOLECULE: CC(C)(C)c1nn(C2CCN(c3cccc(C(F)(F)F)c3)C2=O)cc1Cl (centres unmarked)
TARGET OF ASSAY: giant foxtail (Setaria viridis)
MEASURED NUMBER: 0
//
MOLECULE: CC(C)c1ccn(C2OCN(c3cccc(C(F)(F)F)c3)C2=O)n1 (centres unmarked)
TARGET OF ASSAY: giant foxtail (Setaria viridis)
MEASURED NUMBER: 100
//
MOLECULE: O=C1C(n2cccn2)CCN1c1cccc(C(F)(F)F)c1 (centres unmarked)
TARGET OF ASSAY: giant foxtail (Setaria viridis)
MEASURED NUMBER: 50

----------
- Test system: giant foxtail (Setaria faberii)
- ASSAY OVERVIEW: Test B postemergence
- Assay type: in vivo
- APPLIED CONDITIONS: Rate 125 g/ha, scale 0 (no effect) to 100 (complete control), 13 to 15 days
READOUT: Plant response rating, Foxtail, Giant

COMPOUND: COc1ccn(C2CCN(c3cccc(C(F)(F)F)c3)C2=O)n1 (centres unmarked)
READOUT: Plant response rating, Foxtail, Giant
MEASURED NUMBER: 0

COMPOUND: CCC(C)c1ccn(C2SCN(c3cccc(C(F)(F)F)c3)C2=O)n1 (centres unmarked)
READOUT: Plant response rating, Foxtail, Giant
MEASURED NUMBER: 50

COMPOUND: CCCC(C)c1ccn(C2CCN(c3cccc(OC)c3)C2=O)n1 (centres unmarked)
READOUT: Plant response rating, Foxtail, Giant
MEASURED NUMBER: 0

COMPOUND: CC(C)(C)c1ccn(C2CCN(c3cccc(SC(F)(F)F)c3)C2=O)n1 (centres unmarked)
READOUT: Plant response rating, Foxtail, Giant
MEASURED NUMBER: 0

COMPOUND: CC(C)(C)c1ccn(C2CCN(c3cccc(Br)c3)C2=O)n1 (centres unmarked)
READOUT: Plant response rating, Foxtail, Giant
MEASURED NUMBER: 0

----------
- Tested on: johnsongrass (Sorghum halepense)
- ASSAY OVERVIEW: Test C preemergence
- Format: in vivo
- APPLIED CONDITIONS: preemergence, Rate 31 g/ha, scale 0 to 100
READOUT: Plant response rating, Johnsongrass

MOLECULE: CCC(CC)c1ccn(C2SCN(c3cccc(C(F)(F)F)c3)C2=O)n1 (centres unmarked)
TARGET OF ASSAY: johnsongrass (Sorghum halepense)
RESULT: 30
--
MOLECULE: Cc1ccc(N2CCC(n3ccc(C(C)(C)C)n3)C2=O)cc1OCCCl (centres unmarked)
TARGET OF ASSAY: johnsongrass (Sorghum halepense)
RESULT: 0
--
MOLECULE: O=C1C(n2ccc(C3CC3)n2)OCN1c1cccc(C(F)(F)F)c1 (centres unmarked)
TARGET OF ASSAY: johnsongrass (Sorghum halepense)
RESULT: 0
--
MOLECULE: CC(C)(C)c1ccn(C2CCN(c3cccc(OC(F)(F)F)c3)C2=O)n1 (centres unmarked)
TARGET OF ASSAY: johnsongrass (Sorghum halepense)
RESULT: 0
--
MOLECULE: CC(C)(C)c1ccn(C2SCN(c3cccc(OC(F)F)c3)C2=O)n1 (centres unmarked)
TARGET OF ASSAY: johnsongrass (Sorghum halepense)
RESULT: 50

Cited source for all entries: patent US7138361B2
